- System: Human immunodeficiency virus 1
- experiment notes: Dissociation constant was measured against HIV-1 RNA construct C (present in HIV-1 RRE IIB RNA region)
- Type: functional
measured quantity: Kd (nM)
State the answer as a number, implicitly in nM.

Give its Kd value. Item: Cc1ccc2ccc(NC(=O)CCN)nc2n1
2900
